# pEC50 values compiled below
- STUDY_SYSTEM: T1, Human B7-H4 with HisFlag tag (huB7-H4-his) (human, UniProt Q7Z7D3 25-258)
- T1 construct: also called HuB7-H4 His protein; huB7-H4-HF
- T1 sequence: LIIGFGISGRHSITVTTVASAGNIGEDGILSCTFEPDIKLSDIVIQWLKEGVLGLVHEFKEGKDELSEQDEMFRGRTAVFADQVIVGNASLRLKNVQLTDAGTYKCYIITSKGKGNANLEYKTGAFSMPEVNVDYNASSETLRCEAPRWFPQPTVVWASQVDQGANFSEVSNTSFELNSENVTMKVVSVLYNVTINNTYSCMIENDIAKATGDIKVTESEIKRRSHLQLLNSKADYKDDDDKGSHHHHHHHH
- ASSAY_OVERVIEW: indirect ELISA, plate coated with HuB7-H4 His
pEC50 (log units): -log10 of the concentration in mol/L.

chimeric antibody M1 (antibody, V domains shown, also called ch-M1) VH: EIQLQQSGPELVMPGASVKVSCTASGYPFTTYNMYWVKQSHGKSLEWIAYIDPYNGGTSYNQKFKGKATLTVDKSSSTAYMHLNSLTSEDSAVYYCARSGFYDGYYAWYFDVWGAGTTVTVSS VL: DVVMTQTPLSLPVSLGDQASISCRSSQSLVHSGGNTYLHWYLQKPGQSPKLLIYKVSNRFSGVPDRFSGSGSGTDFTLKISRVEAEDLGVYFCSQSTHVPLTFGAGTKLELK    10.20

Query binder follows.
Assign pEC50 to the following record: chimeric antibody 2G6 (antibody, human IgG1, V domains shown) VH: EVQLVESGGGLVKPGGSLKLSCAASGFTFSRYGMSWVRQTPEKRLEWVAGINGGGSYTYYLDTVKGRFTISRDNSRNTLYLQMSSLRSEDTAMYYCVSQGSNYYFDYWGQGTTLTVSS VL: DIRMTQSPSSMSVSLGDTVSITCHASQGISSNIGWLQQKPGKSFKALIYHGTNLEDGVPSRFSGSGSGADYSLTISSLESEDFADYYCVQYAQFPYTFGGGTKLEIK 10.09
